Provide the reported IC50 of each item.
system: HER-2 receptor (Hsp90 client) in MCF-7 cells; assay: HER-2 degradation assay (MCF-7 cells, 16 h, phycoerythrin-labeled antibody and flow cytometry); format: cell-based, human; conditions: Homo sapiens, MCF7, read-out: HER-2 IC50(nM)

Consider the worked cases shown below.
CCCCn1c(Sc2nc3cccc(OC)c3s2)nc2c(N)ncnc21 [Compound 173]
190 nM
CCCCn1c(Sc2nc3cccc(Cl)c3s2)nc2c(N)ncnc21 [Compound 232]
180 nM
CCCCn1c(Sc2nc3cccc(F)c3s2)nc2c(N)ncnc21 [Compound 175]
200 nM

# per-item lookup of IC50; items listed below
1. CCCCn1c(Sc2nc3cccc(Br)c3s2)nc2c(N)ncnc21 [Compound 171]
2. CCCCn1c(Sc2nc3cccc(C)c3s2)nc2c(N)ncnc21 [Compound 172]

330 nM
300 nM
